# Test system: HS 578T breast
# experiment.description: NCI tumour cell line growth inhibition, 48 h
Where a SMILES comes first, the peptide text is derived from it. [ ]: non-standard residue; d: D form. The star is where a group is joined. ξ: configuration not given here. Propanoyl(3-(4-MeO-Ph)) = COc1ccc(CCC(=O)*)cc1; Thr(3ξ) = CC(O)[C@H](N)C(=O)O; dNMeL = CN[C@H](CC(C)C)C(=O)O; ξLac = CC(O)C(=O)O
endpoint.label: TGI

| molecule | endpoint.label | recorded.value |
| --- | --- | --- |
| N#C/C(=C\Nc1ccccn1)C(=O)c1ccco1 | TGI | > 100 µM |
| COc1cccc2c1-c1c(OC)cccc1SS2 | TGI | > 100 µM |
| COc1ccc(C2=Nc3c/c(=C\c4c(O)[nH]c5ccc(Cl)cc45)ccc3=N2)cc1 | TGI | 4.8 µM |
| COc1cc(O)c2c(=O)c(OC)c(-c3ccc4c(c3)OCO4)oc2c1OC | TGI | > 50 µM |
| COc1ccc(NCc2cnc3nc(N)nc(N)c3c2C)cc1 | TGI | > 100 µM |
| N#CCSc1c(-c2ccccc2)c(=O)n(-c2ccccc2)c(=S)n1-c1ccccc1 | TGI | > 100 µM |
| CCCCNC(=S)c1ccc(OC(=O)Nc2ccc(Cl)cc2)cc1 | TGI | > 100 µM |
| C=CCCC(On1c(-c2ccc(Cl)cc2)csc1=S)c1ccccc1 (configuration not stated) | TGI | > 100 µM |
| COC(=O)[C@@H](NC(=O)[C@@H](CC(C)C)N(C)C(=O)[C@@H]1CCCN1C(=O)C(C)O)C(C)OC(=O)CCc1ccc(OC)cc1 (some centres not stated) (H-[ξLac]P[dNMeL][Thr(3ξ)](Propanoyl(3-(4-MeO-Ph)))-OMe) | TGI | > 100 µM |
| COc1ccc2nc3cc([N+](=O)[O-])ccc3c(NCCCN(CCO)CCO)c2c1 | TGI | 12.5 µM |
| O=C(Cn1c(=O)oc2ccc(C(=O)c3ccccc3Cl)cc21)c1ccc([N+](=O)[O-])cc1 | TGI | > 100 µM |
| c1cncc(-c2nc3ccccc3s2)c1 | TGI | > 100 µM |
| CSc1n(Cc2ccc3ccccc3c2)c(C)c[n+]1Cc1ccc2ccccc2c1 | TGI | 2.7 µM |
| NC(=O)c1ncn2c(=O)n(CCl)nnc12 | TGI | > 100 µM |
| Oc1ccc2ccccc2c1C1NN=C(c2ccccc2)S1 (configuration not stated) | TGI | 44.4 µM |
| O=c1oc(-c2ccccc2)cc2cccc(O)c12 | TGI | 54.7 µM |
| O=C(Nc1ccc2[nH]c(C(=O)N3CC(CCl)c4c3cc([N+](=O)[O-])c3ccccc43)cc2c1)c1cc2ccccc2o1 (configuration not stated) | TGI | > 1100 µM |
| CN1C(=O)C(=Cc2cn(Cc3ccccc3)c3ccccc23)C(=O)N(C)C1=O | TGI | > 81.5 µM |
| COc1ccc2c3c(c4ccccc4cc13)C(=O)N(CCN(C)CCN)C2=O | TGI | 3.67 µM |
| COc1cc(-c2csc(NC(=O)Nc3cc(C(F)(F)F)cc(C(F)(F)F)c3)n2)cc(OC)c1OC | TGI | 6.9 µM |
| Cn1c(N=[N+]=[N-])cc(=O)n(C)c1=O | TGI | > 100 µM |
| CC1(C)CCC[C@]2(C)c3cc(O)ccc3CC[C@@H]12 | TGI | 31.3 µM |

---

# Tested on: EKVX NSCLC
# experiment.description: NCI tumour cell line growth inhibition, 48 h
Reported TGI is given for each of the following compounds.
endpoint.label: TGI

| compound | recorded.value |
| --- | --- |
| COc1cccc2c1-c1c(OC)cccc1SS2 | 31.4 µM |
| Nc1nc2ccc3[nH]ncc3c2c2c1CCCC2 | 5.38 µM |
| CC(=O)C1COC(O)C1C (stereo unspecified) | > 100 µM |
| O=C1c2cc(-c3ccccc3)ccc2-c2c1c1ccc([N+](=O)[O-])cc1c(=O)n2CCCBr | > 50 µM |
| CC1(C)OCC(COC(=O)NCn2cc(-c3ccccc3)nn2)O1 (stereo unspecified) | > 100 µM |
| CC(C)N1CCC2(CC1)NNc1ncccc1-n1cccc12 | > 100 µM |
| O=c1cc(-c2ccccc2)nc(/C=C(\O)c2ccncc2)n1-c1ccccc1 | > 100 µM |
| COC(=O)[C@@]12OC[C@]34C([C@@H](O)C1O)[C@@]1(C)CC(=O)C(O)=C(C)C1C[C@H]3OC(=O)[C@H](OC(=O)/C=C(/c1ccccc1)C(F)(F)F)[C@H]42 (stereo partly specified) | > 25 µM |
| COc1ccc2nc(NCN3C(=O)c4ccccc4C3=O)sc2c1 | > 100 µM |
| CC1(C)N=C(N)N=C(N)N1c1ccc(CCc2ccc(Cl)cc2S(=O)(=O)F)c(Cl)c1 | > 100 µM |
| COC(=O)[C@@]1(O)CC(C)C=C1C=O (stereo partly specified) | > 100 µM |
| COc1cc(C2c3cc4c(cc3OC3(OC)COC(=O)C23)OCO4)cc(OC)c1OC (stereo unspecified) | > 72.1 µM |
| Clc1cccc(N2CCN(CCN3CCc4c([nH]c5ccccc45)C3c3cccnc3)CC2)c1 (stereo unspecified) | 99.7 µM |
| CCn1c2ccc(C(=O)CCCN(C)C)cc2c2cc(C(=O)CCCN(C)C)ccc21 | 6.79 µM |
| CCOC(=O)C1=NN(c2ccc(Cl)cc2)C2=CC(C)=NN(C)C(=S)N21 | 81.9 µM |
| Cc1ccc(C(=O)C2=CN=C3C(=O)N(c4ccccc4)N(C)C3(C)C2=N)cc1 (stereo unspecified) | > 100 µM |
| CCCCNC(=S)c1ccc(OC(=O)Nc2ccc(Cl)cc2)cc1 | > 100 µM |
| Cc1cc(C)c2c(=N)c3ccccc3n(CCCCCCn3c4ccccc4c(=N)c4c(C)cc(C)nc43)c2n1 | 3.29 µM |
| CN1CCN(/C(N)=C(\C#N)C(=O)Nc2ccccc2)CC1 | > 100 µM |
| CN[C@@H]1C[C@H]2O[C@@](C)([C@@H]1OC)n1c3ccccc3c3c4c(c5c6ccccc6n2c5c31)C(=O)N[C@H]4O | > 10 µM |
| O=c1oc(-c2ccccc2)cc2cccc(O)c12 | > 40.6 µM |

---

Reported TGI is given for each of the following molecules.
# Test system: K-562 leukemia
# experiment.description: NCI tumour cell line growth inhibition, 48 h

| molecule | TGI |
| --- | --- |
| C[C@]12CC[C@H](O)CC1=CC[C@@H]1[C@@H]2CC[C@]2(C)c3nc(Cl)ccc3C[C@@H]12 | > 100 µM |
| CSC1(SC)N2Cc3ccccc3N=C2C1(c1ccccc1)c1ccccc1 | > 100 µM |
| CCCCCCCC(=O)OCC(C[As](=O)(O)O)OC(=O)CCCCCCC (stereo not drawn) | 81.9 µM |
| CNc1ncnc2c1nnn2C | > 100 µM |
| COC(=O)[C@@]12OC[C@]34C([C@@H](O)C1O)[C@@]1(C)CC(=O)C(O)=C(C)C1C[C@H]3OC(=O)[C@H](OC(=O)/C=C(/c1ccccc1)C(F)(F)F)[C@H]42 (stereo partly drawn) | > 25 µM |
| CC(C)(c1ccc(Oc2ccc(C#N)c(C#N)c2)cc1)c1ccc(Oc2ccc(C#N)c(C#N)c2)cc1 | > 100 µM |
| Nc1nn(CC(O)CO)c(=O)s1 (stereo not drawn) | > 100 µM |
| COc1cc([C@@H]2c3cc4c(cc3[C@@H](N=Cc3ccc(C(=O)O[C@@H](C(=O)O[C@H]5C[C@@]6(O)[C@@H](OC(=O)c7ccccc7)[C@@H]7[C@]8(OC(C)=O)CO[C@@H]8C[C@H](O)[C@@]7(C)C(=O)[C@H](OC(C)=O)C(=C5C)C6(C)C)[C@@H](NC(=O)c5ccccc5)c5ccccc5)cc3)[C@H]3COC(=O)[C@H]23)OCO4)cc(OC)c1O | > 50 µM |

---

# Tested on: K-562 leukemia
# experiment.description: NCI tumour cell line growth inhibition, 48 h
We use 80 µM as the dividing line for TGI: on or above the line is Condition met, below is Condition not met.

| compound | measurement.target | label |
| --- | --- | --- |
| COc1c(-c2cccs2)oc2c(CC(=O)O)cccc2c1=O | K-562 leukemia | Condition met |
| COC12OC3CC4(C)C(=CC3OC(OC(C)C1O)C2O)CCC1C4CCC2(C)C(c3ccc(=O)oc3)CCC12O (stereo unspecified) | K-562 leukemia | Condition not met |
| CC1(C)N=C(N)N=C(N)N1c1ccc(CCc2ccc(Cl)cc2S(=O)(=O)F)c(Cl)c1 | K-562 leukemia | Condition met |
| Clc1cc(OCC23CC4CC(CC(C4)C2)C3)nc(OCC23CC4CC(CC(C4)C2)C3)n1 | K-562 leukemia | Condition met |
| N#CCOc1cccc(C2(N3CC=CCC3)CCCCC2)c1 | K-562 leukemia | Condition met |
| COc1ccc(N2C(N)=C(C#N)C(C#N)(C#N)C2c2cccc([N+](=O)[O-])c2)cc1 (stereo unspecified) | K-562 leukemia | Condition not met |
| CCCCN=C(NC#N)N(Cc1ccccc1)Cc1ccccc1 | K-562 leukemia | Condition met |
| Fc1cccc(CSc2ncnc3c2ncn3C2CCCS2)c1 (stereo unspecified) | K-562 leukemia | Condition met |
| Cc1[nH]c(=O)nc2nc3ccc(Cl)cc3c(NC(C)(CO)CO)c12 | K-562 leukemia | Condition met |
| Cc1cc([N+](=O)[O-])ccc1NS(=O)(=O)c1cc(Cl)ccc1Cl | K-562 leukemia | Condition met |
